System: RXF 393 renal
Assay: NCI-60 one-dose screen, 48 h (100 = growth as untreated, 0 = no growth, -100 = all killed)
Settings: 10 µM unless noted
About 83,000 compounds went through this panel and 20% of them were active in at least one assay; those are over-represented in the sample as a whole.
Parameter measured: growth (%)
# value in %; strip the unit string

Consider the reported growth for these molecules:
* O=Cc1c[nH]c2ccc(NC(=O)OCc3ccccc3)cc12 | 96.6
* CCC(CC)NCCCCCNc1cc(OC)cc2cccnc12 | 88.1

Pending molecule:
Query: Could you please provide reported growth for CC1=C(C(=O)Nc2ccccc2)C(c2ccc3c(c2)OCCO3)NC(=O)N1 (stereo not drawn) ? Thanks!
Response: 116

* * *

System: UO-31 renal
Test: NCI-60 one-dose screen, 48 h
Details: 10 µM unless noted
This is part of a sample that, as a whole, favours compounds with a hit. Of some 83,000 tested, about 20% had one in any assay. Calls of active or inactive are those of the source. Rule for the calls: active = growth percent below 10; inactive = the rest.
Respond with a class label; see YES = active, NO = inactive

Worked cases, answers included:
• O=C(Nc1nc(-c2ccc(Cl)cc2)cs1)c1cc(O)c(O)c(O)c1 = YES
• Cc1cc(C)c2c(c1)N1OC(C2)C[C@H]1/C=C/c1ccccc1 (stereo partly specified) = NO
• COc1ccc2c3c(c(OCCCN(C)C)nc2c1)-c1ccc(Cl)cc1C3=O = YES
• CCOC(=O)c1c2c(c(C)n1Cc1ccc(OC)cc1)-c1nc(N)ncc1CC2 = NO
• Cc1ccc(C(C)C)cc1NC(=O)Nc1ccc([N+](=O)[O-])cc1 = YES

Query: Call for entry `CCN1CCN(c2cc(-c3cn[nH]c3-c3cc(C)cc(OC)c3)nc(-c3cccnc3)n2)CC1` :
Response: NO

Query: Could you check what this test reported for `C/C(=N\N1CC(=O)NC1=O)c1ccc([N+](=O)[O-])o1` ?
Response: NO

* * *

Tested on: HS 578T breast
Assay: NCI-60 one-dose screen, 48 h
Settings: 10 µM unless noted
Protocol: Growth inhibition of the HS 578T human tumor cell line is measured as a screen for anti-cancer activity. Cells are grown in 96 well plates and exposed to the test compound for 48 hours. Compounds are tested at a single concentration, which is 10^-5 M for most compounds. The reported endpoint is percent growth (GI% or GIPRCNT), where numbers from 0 - 100% represent growth inhibition, and numbers from -100% - 0 represent cell death. For example, a value of 40 represents 60% growth inhibition. […]
Compounds without any hit were thinned out: in the full panel of roughly 83,000, 20% have a hit. The source made the active and inactive calls. How the source made its calls: active means growth percent below 10; inactive means the rest.
Hi there, use one of these labels in your reply, thanks! active, inactive

- CCOC(=O)c1c(C)nc(C)c(C(=O)OCC)c1-c1cccnc1: inactive
- CCOc1cccc(C2CC(=O)Nc3cc4c(cc32)OCO4)c1 (stereo unspecified): inactive
- COc1cc(NC(=O)c2cc3ccccc3cc2O)c(OC)cc1Cl: inactive

Query: What outcome does the record of this test show for CC1=C(C(=O)Nc2ccccc2)C(c2ccc3c(c2)OCCO3)NC(=O)N1 (stereo unspecified) ?
Response: inactive

Query: What was the test verdict on `Cc1nn(-c2ccc(Br)cc2)c2nc3c(nc12)C(=O)C(=O)c1ccccc1-3` ?
Response: inactive

* * *

System: UACC-62 melanoma
Test: NCI-60 one-dose screen, 48 h (100 = growth as untreated, 0 = no growth, -100 = all killed)
Conditions: 10 µM unless noted
The panel holds about 83,000 compounds, 20% with a hit somewhere; the sample as a whole holds those more often.
# binarize growth: threshold 70% inclusive, high side Yes, low side No

Please review the entries below; each comes with its answer.
• O=C(OC[C@H]1O[C@H](OC(=O)c2cc(O)c(O)c(OC(=O)c3cc(O)c(O)c(O)c3)c2)[C@H](OC(=O)c2cc(O)c(O)c(OC(=O)c3cc(O)c(O)c(O)c3)c2)[C@@H](OC(=O)c2cc(O)c(O)c(OC(=O)c3cc(O)c(O)c(O)c3)c2)[C@@H]1OC(=O)c1cc(O)c(O)c(OC(=O)c2cc(O)c(O)c(O)c2)c1)c1cc(O)c(O)c(OC(=O)c2cc(O)c(O)c(O)c2)c1 = No
• O=C(C(=O)N1CCOCC1)c1ccc(OC2OC(CO)C(O)C(O)C2O)cc1 (stereo unspecified) = Yes
• OCc1nnn(-c2ccccc2)c1CO = Yes
• COc1ccc(Nc2nccc(N3CCN(c4c5ccc(Cl)cc5nc5ccc(OC)cc45)CC3)n2)cc1 = Yes

Query: Does the reported growth for `Cc1cc2cn3c4cccnc4[nH]c(=O)c3c2cc1C` fall at or above the 70% mark?
Response: No

Query: Please indicate if the recorded growth for `Cc1cc(NC(=O)Nc2cc(Cl)ccc2C)no1` meets or exceeds 70%.
Response: Yes

Query: For this compound, is measured growth 70% or higher? `[O-]/[N+](=C\C=C\c1ccccc1)c1ccccc1`
Response: Yes

Query: Could you please find out whether `Cc1cc(=O)n2n1-c1ccc(Cl)cc1NC(=O)C2` has growth that meets 70% or exceeds it?
Response: Yes

Query: Can CC12CCC3C(CCC4CC(=O)/C(=C\O)CC43C)C1CCC(=O)O2 (stereo unspecified) be said to have growth at or above 70%?
Response: Yes

Query: Given `CC1=NN(c2ccccc2Cl)C(=O)/C1=C\c1cn(S(=O)(=O)c2ccc(C)cc2)c2ccccc12` , state whether its growth is at least 70%.
Response: Yes

Query: Tell me whether growth is at least 70% here: `O=C(/C=C/c1cc2ccccc2[nH]c1=O)c1ccc(Cl)cc1`
Response: No
